Tested on: SF-539 CNS
assay_method_text: NCI tumour cell line growth inhibition, 48 h
measure_name: TGI (µM)
Answers are plain numbers, in µM.

Study these solved cases before continuing.
BrCC[N+]12CCCN1CCC2 | 32.9
COc1cc2cc(Oc3ccc(NC(=O)Nc4cc(C(F)(F)F)cc(C(F)(F)F)c4)cc3)c(C)nc2cc1OCCN1CCCCC1 | 3.03
CC(=O)N1C(=O)/C(=C\C(=O)c2ccc(Cl)cc2)c2ccccc21 | 37.2
N#CCCCCCn1c2ccccc2c2c3c(c4c5ccccc5[nH]c4c21)C(=O)N(O)C3=O | 2.05
CC(=O)OC1CC2C(C)(C)C(=O)C=C[C@]2(C)C2CCC3(C)C(=CCC3[C@H](CO)C[C@H](O)C(=O)C(C)(C)O)[C@]12C (some centres undefined) | 35.1

Kindly review the next molecule as well.
Give TGI (SF-539 CNS) of the following molecule: `CCN(Cc1cccc(C)c1)c1ccc(CO)c(Cl)c1`
32.4

Values were extracted from PubChem BioAssay (NCI).
